Assay: Selectivity index, ratio of compound concentration for cell killing activity in human 184B5 cells to compound concentration for cell killing activity in human CAMA1 cells
Assay type: toxicity, cell-based
Conditions: 184B5 cells versus CAMA1 cells, read-out: Selectivity Index
Quantity kind: selectivity ratio

Bench note: what selectivity ratio did COc1ccc2nc3cc(Cl)ccc3c(NCCCN3C(=O)CCSC3c3cccs3)c2c1 (stereo unspecified) show?
3 to 6

* * *

Assay: Selectivity index, ratio of compound concentration for cell killing activity in human 184B5 cells to compound concentration for cell killing activity in human PC3 cells
Type: toxicity, cell-based
Conditions: 184B5 cells versus PC3 cells, read-out: Selectivity Index
Quantity kind: selectivity ratio

Requested field: selectivity ratio. Item: COc1ccc2nc3cc(Cl)ccc3c(NCCCN3C(=O)CCSC3c3cccs3)c2c1 (stereo unspecified)
3 to 6

// provenance: ChEMBL document CHEMBL4138245
